B1: TEKT4 (parent)
chain: LREKLLEAEQSLRNLEDIHMSLEK

Variants of: B1
ASSAY_INFO: protein stability index of a GFP-peptide fusion (GPS, HEK-293T) (PSI 1-6); higher = more stable;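 further: lentivirally expressed fusions sorted by FACS into six bins by GFP to DsRed ratio, PSI derived from sequencing read proportions per bin multiplied by bin number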
EXPERIMENTAL_CONTEXT: c terminus: a fixed tail appended
MEASURED_ENDPOINT: protein stability index
Give bare numbers.

>  <MUTATIONS>
L22F

>  <protein stability index>
1.98

$$$$
>  <MUTATIONS>
I18F

>  <protein stability index>
3.02

$$$$

Please give protein stability index for each item listed below.
1. E9I
2. L6N
3. Q10R
4. I18M
5. L12F
6. L6D

**A:**
1: 1.75; 2: 2.89; 3: 2.69; 4: 1.95; 5: 1.69; 6: 3.54

Please give protein stability index for each item listed below.
1. K4S
2. L5A
3. D17W
4. S11L
5. D17L

**A:**
1: 2.63; 2: 4.49; 3: 1.76; 4: 1.83; 5: 1.89

Please give protein stability index for each item listed below.
1. A8T
2. K4R
3. L15D
4. L1N

**A:**
[2.61, 2.88, 1.55, 4.65]

Please give protein stability index for each item listed below.
1. R2V
2. E3D
3. D17N
4. S11Q
5. A8K
6. R2Q

**A:**
[1.7, 2.02, 1.62, 2.33, 4.01, 1.9]

Please give protein stability index for each item listed below.
1. L1I
2. L6W

**A:**
[1.82, 2.23]

Please give protein stability index for each item listed below.
1. E7M
2. L15W
3. L15K
4. R13M

**A:**
1. 2.38
2. 1.93
3. 2.71
4. 2.52

Please give protein stability index for each item listed below.
1. L15N
2. E7T

**A:**
1: 2.65; 2: 2.93

Please give protein stability index for each item listed below.
1. K24Q
2. N14G
3. L15R
4. L5G
5. E9F
6. R2L

**A:**
1: 2.39; 2: 2.71; 3: 2.38; 4: 4.83; 5: 1.37; 6: 1.93
